- assay-summary: protease stability score; higher = more stable; yeast display proteolysis, trypsin and chymotrypsin;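 further: log10 excess protease needed over predicted unfolded state with 0 meaning unfolded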
protease stability score class ranges: class 1: < -0.001; class 2: ≥ -0.001 and < 0.4; class 3: ≥ 0.4

Request: Category of `DEKEHATEWLEDWQQQLRTGDEKSVANLFDPNARLNVGDKEVHGREDFEKEQKKIREEADHVDVEIVDLKTSPGHIQMFFNLRQTHNGQRQSHREVMVLRLQGDEVRVVKVEHN` , please.
Result: class 1

Request: Category of `DDDLKRKVHKFVEDWKDGDPHRLNHMADEDVRFQVGDKEIHGRKQMHEEVDKEKKEMRRHIDHLELDNQGNTVRVRFELTFTHNGKPFKVDVTIDMEFDGDRLKQAVQRVPREDQTKVKN` , please.
Result: class 1

Request: Category of `DEEAQEVYHRLRKVLENNNPKEFEENVDKDVRFNIGDKRIHGREQASKDWKSRMEEQHRKITRVENQSHGNEFEVRAKVNYDHNGQPRQQDLSAHVVAENGKLKMATYEVRK` , please.
Result: class 2

Request: Category of `DDEDAKRWEKFLKLQQEGNDSEMRKLVDENASFDVGNKHYSGMTTMAHELVRHAHDIRLEYKDVKIDVSGEQIYVTMEVTVNINGQPVRYTNVLEVTMHNGKVKTATNRIPEDVEREIRQ` , please.
Result: class 2

Request: Category of `DEHVQQALERYWDAVTTNNPEQAVNNVDPNVEIVVGDKTLTGREDVHKHIKDVKDKQNVEIKSMQLRVHNGRVRARFKFEVNHNGEPTTDVVVVEAEVKNGKIQRVEARRDK` , please.
Result: class 3

Request: Category of `DEKEQADDAVRQLESAFNQGDWKKLADLFDENARVQYGDKELHGRQKWTTLVRDMEREHDHVEARVKSVHYHNGKIHLKIEIKAETNGRTTSVHVRYVAVVTNGRVEFENAKYS` , please.
Result: class 3

Request: Category of `EEEQLKILQELRKALQDNDSERMKELFDEDVKVQVGDKTITGREKVVDDLRRKAEEQRIQYVTMSARAENGHITVRLQFVNTHNGRPHRRERKLDITLHNGKFKSARYDNDG` , please.
Result: class 3

Request: Category of `DDTAVRIWEKLLSALRTGNEQEVEKNLDPNATVVIGDKRVSGREEVKRMVRRLLTTMRLNVKSVENRDQPGHADVQYTVQFNHNGRPREDRWVVIVRVKNGKIQTVVMKENP` , please.
Result: class 3

Request: Category of `DEELRKQAEELLKARKTNDERQNEELFDPNAHVRYGDRTLHGNEQASKDIADRLEEIRVSMSVEKVEVQGEHVRLEFKFEFEVNGRPQTQTATEEMTVHNGRIKEVRLNVSEEQKRRYKK` , please.
Result: class 1

Request: Category of `DEDAEREIDRLVRDNNEEDIERLMPEDAKMQVGDKTVTGRENIATQIKRLNQKADHRRIDKITLQGERVVINFTIVVNGTKFKAKIVLHAHNGKIKVVVLRARDEDLDREMSKVMN` , please.
Result: class 2

Request: Category of `DERNKRRFDEFERARKTGDPDRMKELADPNAKLDVGNKTITGMDEIVRQLKHEQDKIEIDIKFDRITVQGNNLRAEYHEEYNVNGKPFHDKVVLEVQFDNGKIRELKLRVDPEKQDERRT` , please.
Result: class 1
